experimentalSystem: PHD2 (Homo sapiens)
Sequence (Q9GZT9 whole entry): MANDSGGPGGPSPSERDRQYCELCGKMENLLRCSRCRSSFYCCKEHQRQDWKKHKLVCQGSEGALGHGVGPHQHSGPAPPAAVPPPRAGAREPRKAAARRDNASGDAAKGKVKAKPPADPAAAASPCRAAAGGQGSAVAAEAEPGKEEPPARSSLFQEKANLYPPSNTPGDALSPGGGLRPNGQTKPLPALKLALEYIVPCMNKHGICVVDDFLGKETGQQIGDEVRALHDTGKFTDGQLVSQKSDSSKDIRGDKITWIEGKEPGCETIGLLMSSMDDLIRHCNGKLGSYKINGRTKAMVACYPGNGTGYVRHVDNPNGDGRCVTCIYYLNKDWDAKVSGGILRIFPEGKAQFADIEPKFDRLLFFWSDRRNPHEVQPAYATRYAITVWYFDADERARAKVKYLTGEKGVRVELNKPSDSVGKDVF
readoutLabel: IC50 (µM)

[[record]]
compound = "O=C(O)c1ccnc2c(O)cccc12 [4C8HQ, 4-carboxy-8-hydroxyquinoline]"
unitofmeasure = "µM"
number = 41


* * *

Test system: 2OG oxygenase panel
assaySummary: rank order of potencies across the enzyme panel
Type: biochemical
measurementConditions: rank order of potencies among the four compounds across the panel (Table S1)
readoutLabel: mean rank potency

[[record]]
compound = "O=C(O)c1ccnc(C(=O)O)c1 [2,4-PDCA, 2,4-pyridinedicarboxylic acid, reference compound]"
number = 2.14

[[record]]
compound = "O=C(O)CNC(=O)C(=O)O"
number = 2.85

[[record]]
compound = "O=C(O)c1ccnc2c(O)cccc12 [4C8HQ, 4-carboxy-8-hydroxyquinoline]"
number = 2.57

[[record]]
compound = "O=C(O)c1ccc(O)c2ncccc12 [IOX1, 5-carboxy-8-hydroxyquinoline]"
number = 1.78

